# subjectOfTest: catalytic domain of human PARP14 (Homo sapiens (Human), UniProt Q460N5)
# Sequence (Q460N5 1611-1801): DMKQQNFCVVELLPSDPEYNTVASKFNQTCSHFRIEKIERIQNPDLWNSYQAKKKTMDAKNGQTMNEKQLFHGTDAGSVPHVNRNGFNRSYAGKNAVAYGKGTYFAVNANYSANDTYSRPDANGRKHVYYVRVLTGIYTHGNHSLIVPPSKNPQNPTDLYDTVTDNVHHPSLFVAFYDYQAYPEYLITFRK
# experiment: Enzymatic assay for inhibition of PARP14 (DELFIA, auto-modification with biotin-NAD)
# testContext: auto-modification of PARP14 by biotin-NAD, 50 nM PARP14, 3 μM biotin-NAD
pIC50: −log10 of the molar value. Structures can show the parent of a compound that is named as a salt.
# Lookup of reported pIC50 keyed by entry

# compound, pIC50
data = [
    ("CC(F)(F)CN1CCC(COc2cc(F)c3c(=O)[nH]c(CSC4CCOCC4)nc3c2)CC1", "> 6.00"),
    ("Cc1cccc2c(=O)[nH]c(CSC3CCN(C(=O)CN)CC3)nc12 [Example 166, Hydrochloride]", "> 6.00"),
    ("Cc1cccc2c(=O)[nH]c(C(C)SC3CCOCC3)nc12 (stereo not shown)", "< 5.00"),
    ("O=c1[nH]c(CSC2CCOCC2)nc2cc(OCC3CCNCC3)cc(F)c12", "> 6.00"),
]
